From: paper PMC11369174

Assignment: determine reported promiscuity for the given sequences.
- TESTED TARGET: ABL1 SH3 (Homo sapiens, UniProt P00519)
- Sequence (P00519 60-121): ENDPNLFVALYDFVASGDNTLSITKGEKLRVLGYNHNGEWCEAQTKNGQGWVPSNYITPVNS
- ASSAY PROCEDURE: GenVar_HD2 ProP-PD phage selection, ABL1 SH3
- Assay type: binding
- MEASUREMENT CONDITIONS: phage selection, bait ABL1_SH3__P00519_60_121
Form: value (number only, do not type unit).

Task item: Need promiscuity, item PLFPPPGEPSLSPLLG
Reply: 2

Task item: I would be grateful if you could share the reported promiscuity for EPRFSPPHSPPGPAMP .
Reply: 2

Task item: Return reported promiscuity; argument: LDSSEPRFSPPLSPPG
Reply: 1

Task item: # input sequence: NGSLVPVPPTTPAPGV ; wanted: its promiscuity
Reply: 2

Task item: Consider the sequence EPRFSPPPSPPGPAMP and give its measured promiscuity.
Reply: 5
